# Assayed Target: Sigma non-opioid intracellular receptor 1 (Homo sapiens)
# Sequence (Q99720 whole entry): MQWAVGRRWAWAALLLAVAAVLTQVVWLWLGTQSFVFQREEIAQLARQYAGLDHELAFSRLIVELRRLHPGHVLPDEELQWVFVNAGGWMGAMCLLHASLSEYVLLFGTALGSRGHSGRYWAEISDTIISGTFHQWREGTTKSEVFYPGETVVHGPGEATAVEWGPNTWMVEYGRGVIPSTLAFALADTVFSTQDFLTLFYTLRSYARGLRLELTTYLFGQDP
# Protocol: Displacement of [3H]-pentazocine from sigma1 receptor (unknown origin) after 90 mins by microbeta scintillation counting method
Quantity Name: Ki (µM)
Could you give me the number in µM? Just the number is fine.

Q) Return Ki (reported value) for this molecule: FC(F)(F)c1cc(Oc2nccc3ccsc23)ccc1-c1cccc2nccn12
A) 8.8

Q) Determine from records and report Ki for Cc1ncc2nccn2c1-c1ccc(Oc2nccc3occc23)cc1C(F)(F)F
A) 8

Q) Specify Ki for Cc1cc(Oc2nccc3occc23)ccc1-c1c(C)ncc2nccn12 and stop.
A) 8.2

Next:
Q) Respond only with Ki recorded for FC(F)(F)c1cc(Oc2nccc3occc23)ccc1-c1cccc2nccn12
A) 6.9
